For each entry below, report its koff value.
Molecular target: T1, AAV9 (adeno-associated virus serotype 9)
T1 construct: also called adeno-associated virus serotype 9
Experiment: SPR, AAV on CM5 chip;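 also: surface plasmon resonance with AAV amine-coupled to the chip as ligand, nanobodies injected as analyte over a concentration series, rate constants and affinity fitted from binding curves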

>  <Binder>
A4-109 (VHH) VHH: VQLQESGGGLVQAGGSLRLSCAASGTIFSLNVMGWYRQAPGKQRELVASVTRGGNTNYADSVKGRFTISRDNAKTTVYLQMNSLRPEDTAVYYCHVDELRDSTWTTSNLWGQGTQVTVSS

>  <koff>
0.00071 s⁻¹

$$$$
>  <Binder>
A4-113 (VHH) VHH: VQLQESGGGLVQTGGSLRLSCVASGSRFSINTVGWYRQAPGKQRELVATVTRGGSTWYAGSVKGRFTISRDNTKNTIYLQMNSLRPEDTAVYYCHVDEIRQSTWTTSNLWGQGTQVTVSS

>  <koff>
0.00051 s⁻¹

$$$$
>  <Binder>
A4-106 (VHH) VHH: VQLQESGGGLVQPGGSLRLSCIASGSIFSLNAMGWYRQAPGKQRELVATITSGGSTNYADSVKGRFTISRDNAKNTAYLQMNNLQPEDTAVYYCHVDEVRESIWTTSNLWGQGTQVTVSS

>  <koff>
0.00011 s⁻¹

$$$$

Query string: // query koff value for entry A4-103 (VHH) VHH: VQLQESGGGLVQPGGSLRLSCAASGSIFSLNAMGWYRQAPGKQRELVATITRGGSTNYADSVKGRFTISRDNAKNTVYLQMNSLRPEDTAVYYCHVDEVRESIWTTSNLWGQGTQVTVSS
Result string: 0.00107 s⁻¹

The measurements presented in this section are drawn from patent US20260193326A1.
